This section lists IC50 readings for VEGFR-2 kinase (Homo sapiens (Human), UniProt P35968).

Query string: Reported IC50 for "CCOc1ccn(-c2ccc(F)cc2)c(=O)c1C(=O)Nc1ccc(Oc2ccnc3cc(OCC#N)c4c(c23)OCCO4)c(F)c1" : what is it?
Result string: 50 to 500 nM

Query string: For the compound "COCCOc1cc2nccc(Oc3ccc(NC(=O)c4c(OC)ccn(-c5ccc(F)cc5)c4=O)cc3F)c2c2c1OCCO2" , what IC50 is on record?
Result string: ≤ 50 nM

Query string: Could you share which IC50 value was measured for "CCOc1ccn(-c2ccc(F)cc2)c(=O)c1C(=O)Nc1cc(F)c(Oc2ccnc3cc(OC)c4c(c23)OCCO4)cc1Cl" ?
Result string: 500 to 5000 nM

// data source = patent US12202835B2
